- assay-explanation: MRP1 drug-resistance reversers in H69AR cells – cell-based, doxorubicin co-treatment, pilot screen (AID 601)
- condition-set: H69AR cells + 2 uM doxorubicin, CellTiter-Glo, 72 h; measured here: viability with 2 uM doxorubicin; at 10 µM; stronger effect = lower value
# rule met = viability below 90% (exclusive); rule not met = viability at/above 90%

[in] Please determine if "CCOC(=O)N1CCN(C(=O)c2ccc(CS(=O)(=O)c3ccc(OC)cc3)o2)CC1" is below 90% in terms of viability.
[out] rule not met

[in] Please determine if "CCOCCCNC(=O)Cn1ncc2c(=O)oc3ccccc3c21" is below 90% in terms of viability.
[out] rule not met

[in] Please determine if "Cn1c(=O)oc2cc(S(=O)(=O)N3CCN(c4ccccn4)CC3)ccc21" is below 90% in terms of viability.
[out] rule met

[in] Please determine if O=C1c2ccccc2C(Nc2ccc(-c3nc4ccccc4[nH]3)cc2)N1Cc1ccco1 (stereo not drawn) is below 90% in terms of viability.
[out] rule met

[in] Please determine if "COc1ccc(N2Cc3ccccc3C2)cc1Cl" is below 90% in terms of viability.
[out] rule not met

[in] Please determine if "CCCc1cc(C(=O)Nc2ccc(C(C)=O)cc2)no1" is below 90% in terms of viability.
[out] rule not met

[in] Please determine if "Cc1c(C#N)c2ncnc(-c3ccccc3)c2n1-c1ccccc1" is below 90% in terms of viability.
[out] rule met

[in] Please determine if "Cc1cc2ncn(C(=O)N3CCOCC3)c2cc1C" is below 90% in terms of viability.
[out] rule met

[in] Please determine if "CCOC(=O)N1CCC(Nc2ncnc3c2cnn3-c2ccc(C)cc2C)CC1" is below 90% in terms of viability.
[out] rule met

[in] Please determine if "COC(=O)c1ccc(-c2nn(C)c(=O)c3ccccc23)cc1" is below 90% in terms of viability.
[out] rule met

[in] Please determine if "COc1cc2[nH]c(=O)n(CCCCCC(=O)NCCCN3CCCC3=O)c(=O)c2cc1OC" is below 90% in terms of viability.
[out] rule not met

[in] Please determine if CC(=O)NC(C)c1nc2ccccc2n1C(C)C (stereo not drawn) is below 90% in terms of viability.
[out] rule met

[in] Please determine if CCN(CC)CCCN1C(=O)C(O)=C(C(=O)c2ccco2)C1c1ccc(C)o1 (stereo not drawn) is below 90% in terms of viability.
[out] rule met

[in] Please determine if "CCCCn1c(CN2CCN(c3ccccc3)CC2)nc2c1c(=O)n(C)c(=O)n2C" is below 90% in terms of viability.
[out] rule met

[in] Please determine if "CCN1CCN(Cc2nc3c(c(=O)n(C)c(=O)n3C)n2CC(=O)c2ccccc2)CC1" is below 90% in terms of viability.
[out] rule not met

[in] Please determine if CC(CC(=O)NC1CCSC1=O)c1ccccc1 (stereo not drawn) is below 90% in terms of viability.
[out] rule not met

[in] Please determine if "COC(=O)Cc1cc(=O)[nH]c(Nc2nc3ccccc3o2)n1" is below 90% in terms of viability.
[out] rule met

[in] Please determine if CCCCc1ccc(NC(=O)C2CCCO2)cc1 (stereo not drawn) is below 90% in terms of viability.
[out] rule met

[in] Please determine if CN1CCc2c(sc3c2C(=O)NC(c2cccc(OC(=O)c4cccs4)c2)N3)C1 (stereo not drawn) is below 90% in terms of viability.
[out] rule not met

Where do the numbers come from? From PubChem BioAssay.
